Molecular target: C3a anaphylatoxin chemotactic receptor (Homo sapiens)
Test: Antagonist activity at human C3a receptor expressed in RBL-2H3 cells assessed as inhibition of FLPLAR-induced beta-hexosaminidase activity in cell supernatant measuring minimum receptor activity compound preincubated for 10 mins by degranulation assay
Format: functional, cell-based
Parameters: scale not given: the % may be the effect or the level left
Measured Activity by item
Write the quantity with the unit trailing the number.

Entry Ac-WWTRRWRGDKLGLAR-OH has what Activity?
70%

Entry Ac-WWTRRYRASKLGLAR-OH has what Activity?
42%

Entry Ac-WWTRRWRTDKLGLAR-OH has what Activity?
60%

Entry Ac-WWTRRWRADKLGLAR-OH has what Activity?
68%

Entry Ac-WWERRWRASKLGLAR-OH has what Activity?
61%

Entry Ac-WWSRRWRASKLGLAR-OH has what Activity?
40%

Entry Ac-WWRNRWRENRLGLAR-OH has what Activity?
62.5%

Entry H-WWTRRWRASKLGLAR-OH has what Activity?
63%

Entry Ac-WWDRRWRASKLGLAR-OH has what Activity?
48%

Entry Ac-WWTRRWRASKLGLAR-OH has what Activity?
47%

Entry Ac-WWTRRWRTEKLGLAR-OH has what Activity?
60%

----------
Molecular target: C3a anaphylatoxin chemotactic receptor (Homo sapiens)
Experiment: Agonist activity at human C3a receptor expressed in RBL-2H3 cells assessed as beta-hexosaminidase activity in cell supernatant by degranulation assay relative to FLPLAR
Format: functional, cell-based
MEASURED_PARAMETER: Emax (%)
Entry rule: numbers only, all in %.

Worked set:
SUBSTANCE	OUTPUT_UNIT	Emax
Ac-WWTRRWRTEKLGLAR-OH	%	45
Ac-WWTRRWRTDKLGLAR-OH	%	43

Now for a further substance.
Entry Ac-WWTRRWRASKLGLAR-OH has what Emax?
35

----------
Biological target: C3a anaphylatoxin chemotactic receptor (Homo sapiens, UniProt Q16581)
Assay: Agonist activity at C3a receptor in dbcAMP differentiated human U937 cells assessed as increase in intracellular calcium using […] staining by microplate reader
Format: functional, cell-based, U-937
Measured EC50 by item
Write the quantity with the unit trailing the number.

SUBSTANCE	EC50
Ac-WWTRRWRGDKLGLAR-OH	0.794 µM

Entry Ac-WWTRRWRADKLGLAR-OH has what EC50?
0.49 µM

----------
Target: C3a anaphylatoxin chemotactic receptor (Homo sapiens, UniProt Q16581)
Sequence (Q16581 whole entry): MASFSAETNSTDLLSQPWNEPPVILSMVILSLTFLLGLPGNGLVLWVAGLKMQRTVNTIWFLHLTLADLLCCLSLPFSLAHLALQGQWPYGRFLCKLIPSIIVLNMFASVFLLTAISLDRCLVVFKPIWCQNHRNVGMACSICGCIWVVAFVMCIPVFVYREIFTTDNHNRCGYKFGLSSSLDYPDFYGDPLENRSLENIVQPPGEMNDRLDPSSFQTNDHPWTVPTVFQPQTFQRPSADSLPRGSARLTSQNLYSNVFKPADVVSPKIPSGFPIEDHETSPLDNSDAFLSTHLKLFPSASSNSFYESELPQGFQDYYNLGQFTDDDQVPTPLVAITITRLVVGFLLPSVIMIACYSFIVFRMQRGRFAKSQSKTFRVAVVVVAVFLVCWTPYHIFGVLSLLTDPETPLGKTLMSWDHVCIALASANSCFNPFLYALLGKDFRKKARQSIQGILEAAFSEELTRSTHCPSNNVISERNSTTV
Test: Agonist activity at human C3a receptor expressed in RBL-2H3 cells assessed as beta-hexosaminidase activity in cell supernatant by degranulation assay
Format: functional, cell-based
Measured EC50 by item
Entry rule: numbers only, all in nM.

Worked set:
SUBSTANCE	EXPERIMENTAL_SYSTEM	EC50 (nM)
Ac-WWTRRWRASKLGLAR-OH	C3a anaphylatoxin chemotactic receptor (Homo sapiens, UniProt Q16581)	195
Ac-WWTRRWRTEKLGLAR-OH	C3a anaphylatoxin chemotactic receptor (Homo sapiens, UniProt Q16581)	708
Ac-WWTRRWRGDKLGLAR-OH	C3a anaphylatoxin chemotactic receptor (Homo sapiens, UniProt Q16581)	25.1

Entry Ac-WWSRRWRASKLGLAR-OH has what EC50?
148

Entry Ac-WWTRRWRADKLGLAR-OH has what EC50?
66.1

Entry Ac-WWTRRYRASKLGLAR-OH has what EC50?
1000

Entry Ac-WWTRRWRTDKLGLAR-OH has what EC50?
339

----------
Biological target: C3a anaphylatoxin chemotactic receptor (Homo sapiens)
Assay: Antagonist activity at human C3a receptor expressed in RBL-2H3 cells assessed as inhibition of human recombinant C3a -induced beta-hexosaminidase activity in cell supernatant measuring minimum receptor activity compound preincubated for 10 mins by degranulation assay
Type: functional, cell-based
Set-up: scale not given: the % may be the effect or the level left
Parameter class (string): assigned from measured Activity. Ranges: one: < 40%; two: ≥ 40% and < 60%; three: ≥ 60%

Here's what some known entries look like.
SUBSTANCE	CLASS_NAME
Ac-WWDRRWRASKLGLAR-OH	one
Ac-WWERRWRASKLGLAR-OH	one

# classify by Activity band: Ac-WWRNRWRENRLGLAR-OH
three

# classify by Activity band: Ac-WWGKKYRASKLGLAR-OH
two

# classify by Activity band: Ac-WWTRRYRASKLGLAR-OH
two

# classify by Activity band: Ac-WWTRRWRGDKLGLAR-OH
three

# classify by Activity band: Ac-WWTRRWRASKLGLAR-OH
two

# classify by Activity band: Ac-WWTRRWRADKLGLAR-OH
three

----------
Molecular target: C3a anaphylatoxin chemotactic receptor (Homo sapiens)
Experiment: Agonist activity at human C3a receptor expressed in RBL-2H3 cells assessed as beta-hexosaminidase activity in cell supernatant by degranulation assay relative to FLPLAR
Assay type: functional, cell-based
MEASURED_PARAMETER: Emax (%)
Entry rule: numbers only, all in %.

Worked set:
SUBSTANCE	OUTPUT_UNIT	Emax
Ac-WWERRWRASKLGLAR-OH	%	22
Ac-WWTRRWRGDKLGLAR-OH	%	72
H-WWTRRWRASKLGLAR-OH	%	37
Ac-WWTRRWRADKLGLAR-OH	%	79
Ac-WWSRRWRASKLGLAR-OH	%	13

Entry Ac-WWGKKYRASKLGLAR-OH has what Emax?
38

Entry Ac-WWDRRWRASKLGLAR-OH has what Emax?
14

Entry Ac-WWTRRYRASKLGLAR-OH has what Emax?
29

----------
Molecular target: C3a anaphylatoxin chemotactic receptor (Homo sapiens) (UniProt Q16581)
Sequence (whole entry): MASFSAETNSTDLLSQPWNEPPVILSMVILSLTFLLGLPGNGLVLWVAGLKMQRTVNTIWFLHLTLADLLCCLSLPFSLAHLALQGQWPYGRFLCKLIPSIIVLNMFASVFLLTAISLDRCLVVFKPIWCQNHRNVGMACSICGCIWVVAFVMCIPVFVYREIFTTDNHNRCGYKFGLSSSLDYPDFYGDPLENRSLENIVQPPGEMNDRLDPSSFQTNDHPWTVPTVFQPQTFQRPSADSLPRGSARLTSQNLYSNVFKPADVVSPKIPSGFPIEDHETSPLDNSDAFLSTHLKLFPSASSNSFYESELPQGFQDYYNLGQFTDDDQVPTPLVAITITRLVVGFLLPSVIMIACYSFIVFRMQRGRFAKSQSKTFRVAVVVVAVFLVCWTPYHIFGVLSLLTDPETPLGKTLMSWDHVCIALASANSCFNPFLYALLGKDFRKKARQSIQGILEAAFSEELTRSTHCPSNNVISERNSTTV
Assay: Agonist activity at human C3a receptor expressed in RBL-2H3 cells assessed as beta-hexosaminidase activity in cell supernatant by degranulation assay relative to recombinant human C3a
Assay type: functional, cell-based
Label met when Emax >= 30%; otherwise not met.

SUBSTANCE	CLASS_NAME
Ac-WWTRRWRASKLGLAR-OH	met

Does the substance Ac-WWTRRWRGDKLGLAR-OH have recorded Emax that is 30% or more?
met

Does the substance Ac-WWTRRWRTDKLGLAR-OH have recorded Emax that is 30% or more?
met

----------
Biological target: C3a anaphylatoxin chemotactic receptor (Homo sapiens, UniProt Q16581)
Test: Antagonist activity at human C3a receptor expressed in RBL-2H3 cells assessed as beta-hexosaminidase activity in cell supernatant compound preincubated for 10 mins by degranulation assay
Format: functional, cell-based
Threshold 8 nM. IC50 below it: yes (1). IC50 at it or above: no (0).

Here's what some known entries look like.
SUBSTANCE	CLASS_NAME
Ac-WWTRRWRTDKLGLAR-OH	yes (1)
Ac-WWTRRWRASKLGLAR-OH	no (0)
Ac-WWTRRYRASKLGLAR-OH	no (0)
Ac-WWTRRWRADKLGLAR-OH	yes (1)
Ac-WWTRRWRTEKLGLAR-OH	yes (1)
Ac-WWTRRWRGDKLGLAR-OH	no (0)

Moving on to another substance below.
Is IC50 of Ac-WWSRRWRASKLGLAR-OH strictly below 8 nM?
no (0)
